# Tested on: Penicillium citrinum
# Test Description: Antifungal activity against Penicillium citrinum at 0.06 mol/L after 2 to 4 days by paper disc method
# Format: functional
# Details: read-out: DIZ
Observation Type: zone of inhibition at 60000 µM

• O=C(O)[C@H](Cc1ccccc1)/N=C/C=C/c1ccc(Cl)cc1 = 21 mm
• COc1ccc(/C=C/C=N/[C@@H](Cc2ccc(O)cc2)C(=O)O)cc1 = 19 mm
• CC(C)[C@H](/N=C/C=C/c1ccc(Cl)cc1)C(=O)O = 19.5 mm
• OC(Cn1cncn1)(Cn1cncn1)c1ccc(F)cc1F = 9.2 mm
• COc1ccc(/C=C/C=N/[C@@H](CCC(=O)O)C(=O)O)cc1 = 13.3 mm
• CC(/N=C/C=C/c1ccccc1)C(=O)O (stereo unspecified) = 9.3 mm
• O=C(O)CC[C@H](/N=C/C=C/c1ccccc1)C(=O)O = 14 mm
• CC(/N=C/C=C/c1ccc(Cl)cc1)C(=O)O (stereo unspecified) = 24.7 mm
• COc1ccc(/C=C/C=N/[C@@H](CC(=O)O)C(=O)O)cc1 = 12.8 mm
• O=C(O)C/N=C/C=C/c1ccc(Cl)cc1 = 20.3 mm
• COc1ccc(/C=C/C=N/[C@@H](Cc2ccccc2)C(=O)O)cc1 = 10.5 mm
• O=C(O)[C@H](Cc1ccccc1)/N=C/C=C/c1ccccc1 = 8 mm
• O=C(O)C/N=C/C=C/c1ccccc1 = 11 mm
• COc1ccc(/C=C/C=N/[C@@H](CC(C)C)C(=O)O)cc1 = 10 mm
• O=C(O)[C@H](Cc1ccc(O)cc1)/N=C/C=C/c1ccc(Cl)cc1 = 15.7 mm
• O=C(O)C[C@H](/N=C/C=C/c1ccc(Cl)cc1)C(=O)O = 25 mm
• CC(C)C[C@H](/N=C/C=C/c1ccc(Cl)cc1)C(=O)O = 19.7 mm
• COc1ccc(/C=C/C=N/CC(=O)O)cc1 = 8.7 mm
• O=C(O)CC[C@H](/N=C/C=C/c1ccc(Cl)cc1)C(=O)O = 18.7 mm
• O=C(O)C[C@H](/N=C/C=C/c1ccccc1)C(=O)O = 14.8 mm
• O=C/C=C/c1ccccc1 = 15 mm
• CC(C)C[C@H](/N=C/C=C/c1ccccc1)C(=O)O = 9.3 mm
• CC(C)[C@H](/N=C/C=C/c1ccccc1)C(=O)O = 8 mm
• COc1ccc(/C=C/C=N/[C@H](C(=O)O)C(C)C)cc1 = 12.7 mm
• COc1ccc(/C=C/C=N/C(C)C(=O)O)cc1 (stereo unspecified) = 13.3 mm
• O=C(O)[C@H](Cc1ccc(O)cc1)/N=C/C=C/c1ccccc1 = 11 mm

---

# Tested on: Aspergillus niger
# Test Description: Antifungal activity against Aspergillus niger at 0.13 mol/L after 2 to 4 days by paper disc method
# Type: functional
# Details: read-out: DIZ
# binarize zone of inhibition at 130000 µM: threshold 20 mm inclusive, high side Criterion met, low side Criterion not met

- O=C/C=C/c1ccccc1: Criterion met
- CC(C)[C@H](/N=C/C=C/c1ccc(Cl)cc1)C(=O)O: Criterion met
- COc1ccc(/C=C/C=N/[C@H](C(=O)O)C(C)C)cc1: Criterion not met
- O=C(O)[C@H](Cc1ccc(O)cc1)/N=C/C=C/c1ccc(Cl)cc1: Criterion not met
- COc1ccc(/C=C/C=N/CC(=O)O)cc1: Criterion not met
- COc1ccc(/C=C/C=N/[C@@H](CC(=O)O)C(=O)O)cc1: Criterion met
- CC(/N=C/C=C/c1ccc(Cl)cc1)C(=O)O (stereo unspecified): Criterion met
- CC(C)[C@H](/N=C/C=C/c1ccccc1)C(=O)O: Criterion not met
- O=C(O)CC[C@H](/N=C/C=C/c1ccc(Cl)cc1)C(=O)O: Criterion met
- CC(/N=C/C=C/c1ccccc1)C(=O)O (stereo unspecified): Criterion not met
- COc1ccc(/C=C/C=N/[C@@H](CC(C)C)C(=O)O)cc1: Criterion not met
- O=C(O)C/N=C/C=C/c1ccccc1: Criterion not met
- OC(Cn1cncn1)(Cn1cncn1)c1ccc(F)cc1F: Criterion not met
- COc1ccc(/C=C/C=N/[C@@H](Cc2ccc(O)cc2)C(=O)O)cc1: Criterion not met
- O=C(O)C[C@H](/N=C/C=C/c1ccc(Cl)cc1)C(=O)O: Criterion not met
- O=C(O)[C@H](Cc1ccc(O)cc1)/N=C/C=C/c1ccccc1: Criterion not met
- O=C(O)C[C@H](/N=C/C=C/c1ccccc1)C(=O)O: Criterion met
- COc1ccc(/C=C/C=N/C(C)C(=O)O)cc1 (stereo unspecified): Criterion not met
- CC(C)C[C@H](/N=C/C=C/c1ccccc1)C(=O)O: Criterion not met
- O=C(O)CC[C@H](/N=C/C=C/c1ccccc1)C(=O)O: Criterion met
- COc1ccc(/C=C/C=N/[C@@H](Cc2ccccc2)C(=O)O)cc1: Criterion not met
- CC(C)C[C@H](/N=C/C=C/c1ccc(Cl)cc1)C(=O)O: Criterion met
- O=C(O)C/N=C/C=C/c1ccc(Cl)cc1: Criterion met
- O=C(O)[C@H](Cc1ccccc1)/N=C/C=C/c1ccccc1: Criterion not met

---

Reported zone of inhibition at 30000 µM values follow for various compounds
# System: Aspergillus niger
# Test Description: Antifungal activity against Aspergillus niger at 0.03 mol/L after 2 to 4 days by paper disc method
# Type: functional
# Details: read-out: DIZ
Observation Type: zone of inhibition at 30000 µM

• COc1ccc(/C=C/C=N/C(C)C(=O)O)cc1 (stereo unspecified) = 8 mm
• CC(C)[C@H](/N=C/C=C/c1ccccc1)C(=O)O = 8 mm
• O=C(O)C[C@H](/N=C/C=C/c1ccccc1)C(=O)O = 12.7 mm
• O=C(O)[C@H](Cc1ccc(O)cc1)/N=C/C=C/c1ccccc1 = 8 mm
• COc1ccc(/C=C/C=N/[C@@H](Cc2ccccc2)C(=O)O)cc1 = 18.3 mm
• COc1ccc(/C=C/C=N/[C@@H](CC(=O)O)C(=O)O)cc1 = 8 mm
• CC(C)C[C@H](/N=C/C=C/c1ccccc1)C(=O)O = 8 mm
• O=C/C=C/c1ccccc1 = 8 mm
• COc1ccc(/C=C/C=N/[C@@H](CC(C)C)C(=O)O)cc1 = 9.7 mm
• CC(C)[C@H](/N=C/C=C/c1ccc(Cl)cc1)C(=O)O = 15.7 mm
• CC(C)C[C@H](/N=C/C=C/c1ccc(Cl)cc1)C(=O)O = 18.3 mm
• O=C(O)[C@H](Cc1ccccc1)/N=C/C=C/c1ccc(Cl)cc1 = 12.3 mm
• CC(/N=C/C=C/c1ccc(Cl)cc1)C(=O)O (stereo unspecified) = 13.8 mm
• O=C(O)C/N=C/C=C/c1ccc(Cl)cc1 = 12 mm
• O=C(O)C[C@H](/N=C/C=C/c1ccc(Cl)cc1)C(=O)O = 14.3 mm
• O=C(O)C/N=C/C=C/c1ccccc1 = 8 mm
• O=C(O)CC[C@H](/N=C/C=C/c1ccccc1)C(=O)O = 8 mm
• O=C(O)[C@H](Cc1ccc(O)cc1)/N=C/C=C/c1ccc(Cl)cc1 = 12.3 mm
• COc1ccc(/C=C/C=N/[C@@H](Cc2ccc(O)cc2)C(=O)O)cc1 = 10.3 mm
• O=C(O)CC[C@H](/N=C/C=C/c1ccc(Cl)cc1)C(=O)O = 17.7 mm
• COc1ccc(/C=C/C=N/CC(=O)O)cc1 = 11.3 mm
• COc1ccc(/C=C/C=N/[C@@H](CCC(=O)O)C(=O)O)cc1 = 8.8 mm
• COc1ccc(/C=C/C=N/[C@H](C(=O)O)C(C)C)cc1 = 9 mm
• CC(/N=C/C=C/c1ccccc1)C(=O)O (stereo unspecified) = 8 mm
• O=C(O)[C@H](Cc1ccccc1)/N=C/C=C/c1ccccc1 = 8 mm
• OC(Cn1cncn1)(Cn1cncn1)c1ccc(F)cc1F = 14.5 mm

---

Reported zone of inhibition at 30000 µM values follow for various molecules
# System: Staphylococcus aureus
# Test Description: Antibacterial activity against Staphylococcus aureus at 0.03 mol/L after 12 to 24 hrs by paper disc method
# Assay type: functional
# Details: read-out: DIZ
Observation Type: zone of inhibition at 30000 µM (mm)

- CC(C)C[C@H](/N=C/C=C/c1ccccc1)C(=O)O: 8
- O=C(O)C/N=C/C=C/c1ccc(Cl)cc1: 12.3
- CC(C)C[C@H](/N=C/C=C/c1ccc(Cl)cc1)C(=O)O: 8.7
- COc1ccc(/C=C/C=N/[C@@H](Cc2ccc(O)cc2)C(=O)O)cc1: 8
- O=C(O)c1cn(C2CC2)c2cc(N3CCNCC3)c(F)cc2c1=O [CIPROFLOXACIN]: 16
- CC(C)[C@H](/N=C/C=C/c1ccc(Cl)cc1)C(=O)O: 11
- O=C(O)CC[C@H](/N=C/C=C/c1ccc(Cl)cc1)C(=O)O: 8.3
- O=C(O)C/N=C/C=C/c1ccccc1: 8
- COc1ccc(/C=C/C=N/[C@H](C(=O)O)C(C)C)cc1: 8
- O=C(O)[C@H](Cc1ccccc1)/N=C/C=C/c1ccccc1: 10
- O=C(O)CC[C@H](/N=C/C=C/c1ccccc1)C(=O)O: 8
- COc1ccc(/C=C/C=N/CC(=O)O)cc1: 8
- O=C(O)[C@H](Cc1ccc(O)cc1)/N=C/C=C/c1ccc(Cl)cc1: 9.7
- O=C/C=C/c1ccccc1 [CINNAMALDEHYDE]: 8
- COc1ccc(/C=C/C=N/[C@@H](CC(=O)O)C(=O)O)cc1: 8
- COc1ccc(/C=C/C=N/[C@@H](CC(C)C)C(=O)O)cc1: 9.7
- CC(/N=C/C=C/c1ccc(Cl)cc1)C(=O)O (stereo unspecified): 8.7
- O=C(O)[C@H](Cc1ccccc1)/N=C/C=C/c1ccc(Cl)cc1: 9
- COc1ccc(/C=C/C=N/[C@@H](Cc2ccccc2)C(=O)O)cc1: 8
- CC(C)[C@H](/N=C/C=C/c1ccccc1)C(=O)O: 8
- COc1ccc(/C=C/C=N/[C@@H](CCC(=O)O)C(=O)O)cc1: 8
- O=C(O)C[C@H](/N=C/C=C/c1ccc(Cl)cc1)C(=O)O: 9.2
- O=C(O)C[C@H](/N=C/C=C/c1ccccc1)C(=O)O: 8
- O=C(O)[C@H](Cc1ccc(O)cc1)/N=C/C=C/c1ccccc1: 8
- COc1ccc(/C=C/C=N/C(C)C(=O)O)cc1 (stereo unspecified): 8
- CC(/N=C/C=C/c1ccccc1)C(=O)O (stereo unspecified): 8
